The reported numbers originate from patent US12473289B2.

Entries and their pIC50
Biological target: Delta-5-Desaturase (D5D) (Homo sapiens (Human))
Sequence (O60427 whole entry, species assumed): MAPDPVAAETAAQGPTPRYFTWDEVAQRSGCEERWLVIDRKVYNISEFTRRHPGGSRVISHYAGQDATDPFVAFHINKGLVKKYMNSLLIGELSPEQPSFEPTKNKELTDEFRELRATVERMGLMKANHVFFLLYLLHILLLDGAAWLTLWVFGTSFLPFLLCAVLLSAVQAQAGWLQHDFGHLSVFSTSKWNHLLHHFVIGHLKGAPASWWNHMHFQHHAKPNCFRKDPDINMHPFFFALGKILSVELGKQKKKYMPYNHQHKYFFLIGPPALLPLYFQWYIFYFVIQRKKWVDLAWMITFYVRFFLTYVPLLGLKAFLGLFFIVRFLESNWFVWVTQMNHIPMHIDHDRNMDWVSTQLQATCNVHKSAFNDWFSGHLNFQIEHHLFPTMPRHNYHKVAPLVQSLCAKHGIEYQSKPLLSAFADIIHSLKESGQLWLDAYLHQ
Test: In vitro measurement of Delta-5-Desaturase inhibitory activity using DGLA-CoA and Arachidonyl-CoA mass spectrometric assays
Conditions: membrane preparations of D5D-overexpressing HEK293 6E cells; averaged over at least two independent runs
Protocol: In vitro Measurement of Delta-5-Desaturase Inhibitory Activity using DGLA-CoA and Arachidonyl-CoA Mass Spectrometric Assays Membrane preparations of D5D-overexpressing HEK293 6E cells were prepared in which the total protein concentration was 5.6 mg/mL. […] DGLA-CoA and Arachidonyl-CoA were detected by multiple reaction monitoring (MRM) of the doubly charged parent ions at m/z 526.6 and 525.6, respectively. […]
Here pIC50 is given on a logarithmic scale as minus log10 of the concentration in mol/L.

{"columns": ["compound", "value-kind", "observed-result"],
 "data": [
  ["COc1ccn2c(=O)c(-c3cnn(-c4cccc(F)c4)c3)c(C(F)(F)F)nc2c1", "pIC50", 7.60],
  ["C[S+]([O-])c1ccn2c(=O)c(-c3cnn(CC(F)(F)C(F)(F)F)c3)c(C(F)(F)F)nc2c1 (stereo not shown)", "pIC50", 6.15],
  ["[2H]C([2H])([2H])Oc1ccn2c(=O)c(-c3ccc(OCC(F)(F)F)cc3)c(C(F)(F)F)nc2c1", "pIC50", 8.40],
  ["CCCn1cc(-c2c(C(F)(F)F)nc3ccccn3c2=O)cn1", "pIC50", 6.70],
  ["COc1ccc2nc(C(F)(F)F)c(-c3cnn(CC(F)(F)C(F)(F)F)c3)c(=O)n2c1", "pIC50", 6.94]
]}

Record summary for COc1ccn2c(=O)c(-c3ccc(CCC#N)cc3)c(C(F)(F)F)nc2c1 : reported pIC50 = 6.71

Record summary for COc1ccn2c(=O)c(-c3cnn(C4CC4)c3)c(C(F)(F)F)nc2c1 : reported pIC50 = 6.98

Record summary for COc1ccn2c(=O)c(-c3cnn(CCCC(F)(F)F)c3)c(C(F)(F)F)nc2n1 : reported pIC50 = 6.74

Record summary for COc1ccn2c(=O)c(-c3ccc(OCC(F)(F)F)cc3F)c(C(F)(F)F)nc2n1 : reported pIC50 = 8.07

Record summary for CCc1ccn2c(=O)c(-c3ccc(OCC(F)(F)F)cc3)c(C(F)(F)F)nc2c1 : reported pIC50 = 7.65

Record summary for CCCc1ccc(-c2c(C(F)(F)F)nc3cc(OC)ccn3c2=O)cc1 : reported pIC50 = 8.44

Record summary for COc1ccn2c(=O)c(-c3cnn(C[C@@H]4CC4(F)F)c3)c(C(F)(F)F)nc2c1 : reported pIC50 = 7.98

Record summary for COc1ccn2c(=O)c(-c3ccc(OCC(F)(F)F)nc3F)c(C(F)(F)F)nc2c1 : reported pIC50 = 6.90

Record summary for [2H]C([2H])([2H])Oc1ccn2c(=O)c(-c3cnn(CCC(F)(F)F)c3)c(C(F)(F)F)nc2c1 : reported pIC50 = 7.94

Record summary for COc1ccn2c(=O)c(-c3nnn(CC(F)(F)C(F)(F)F)c3I)c(C(F)(F)F)nc2c1 : reported pIC50 = 6.80
